- Measurement target: Electrophorus electricus AChE (Electrophorus electricus)
- Construct: purchased Sigma-Aldrich, USA Type VI-S
- Method: biochemical
- Condition parameters: read-out: % Inhibition at concentration of 1 μM, 1 μM
Recorded endpoint: inhibition at 1 µM (%)
Kindly provide the numeric value in % only, without the unit symbol.

Sample answers from the record:
{"columns": ["Molecule", "Measurement target", "Recorded endpoint", "Quantitative result"],
 "data": [
  ["O=C(Cc1cc[n+](Cc2ccccc2)cc1)Nc1cc2ccccc2oc1=O [compound 5a]", "Electrophorus electricus AChE (Electrophorus electricus)", "inhibition at 1 µM", 10],
  ["COc1cc2cc(N)c(=O)oc2cc1OC [compound 8]", "Electrophorus electricus AChE (Electrophorus electricus)", "inhibition at 1 µM", 5]
]}

# context switch: different molecule, same inhibition at 1 µM
Q: Report inhibition at 1 µM under test system Electrophorus electricus AChE (Electrophorus electricus) for Nc1cc2ccccc2oc1=O [compound 3, 3-aminocoumarin] .
A: 12

###

Overview of reported IC50 across a group of compounds:
- Measurement target: Electrophorus electricus AChE (Electrophorus electricus, UniProt O42275)
- Construct: purchased Sigma-Aldrich, USA Type VI-S
- Sequence (O42275 24-633): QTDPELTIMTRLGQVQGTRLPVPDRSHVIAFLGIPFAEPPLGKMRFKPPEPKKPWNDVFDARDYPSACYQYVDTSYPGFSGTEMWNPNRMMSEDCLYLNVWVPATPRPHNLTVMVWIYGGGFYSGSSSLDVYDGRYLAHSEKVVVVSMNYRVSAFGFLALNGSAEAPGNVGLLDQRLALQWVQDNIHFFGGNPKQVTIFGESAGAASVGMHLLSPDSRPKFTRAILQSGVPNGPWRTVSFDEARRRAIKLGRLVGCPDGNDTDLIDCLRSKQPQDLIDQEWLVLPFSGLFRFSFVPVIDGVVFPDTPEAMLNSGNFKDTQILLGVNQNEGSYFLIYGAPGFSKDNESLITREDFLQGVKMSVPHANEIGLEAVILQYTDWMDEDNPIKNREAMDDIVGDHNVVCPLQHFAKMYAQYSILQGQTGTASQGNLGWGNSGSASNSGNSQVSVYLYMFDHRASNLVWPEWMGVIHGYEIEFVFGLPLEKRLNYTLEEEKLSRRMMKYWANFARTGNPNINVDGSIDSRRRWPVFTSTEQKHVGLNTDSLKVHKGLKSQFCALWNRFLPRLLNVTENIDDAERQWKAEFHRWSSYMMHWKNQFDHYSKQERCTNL
- Method: biochemical
- Condition parameters: concentration producing 50% inhibition of enzyme activity; triplicate independent experiments
Kindly provide the numeric value in nM only, without the unit symbol.

{"columns": ["Compound", "Unit annotation", "Quantitative result"],
 "data": [
  ["COc1cc2cc(NC(=O)c3cc[n+](Cc4cccc(Cl)c4)cc3)c(=O)oc2cc1OC", "nM", 11.5]
]}

Q: Name the recorded IC50 of the compound listed here: COc1cc2cc(NC(=O)c3cc[n+](Cc4cccc(F)c4)cc3)c(=O)oc2cc1OC
A: 5.04

Q: Name the recorded IC50 of the compound listed here: COc1cc2cc(NC(=O)c3cc[n+](Cc4ccc(F)cc4)cc3)c(=O)oc2cc1OC
A: 5.31

Q: Name the recorded IC50 of the compound listed here: COc1cc2cc(NC(=O)c3cc[n+](Cc4ccccc4F)cc3)c(=O)oc2cc1OC
A: 3.05

Q: Name the recorded IC50 of the compound listed here: COc1cc2cc(NC(=O)c3cc[n+](Cc4ccccc4Cl)cc3)c(=O)oc2cc1OC
A: 6.03

Q: Name the recorded IC50 of the compound listed here: COc1cc2cc(NC(=O)c3cc[n+](Cc4c(F)cccc4F)cc3)c(=O)oc2cc1OC
A: 2.43

Q: Name the recorded IC50 of the compound listed here: COc1cc2cc(NC(=O)c3cc[n+](Cc4ccc(Cl)cc4)cc3)c(=O)oc2cc1OC
A: 293

Q: Name the recorded IC50 of the compound listed here: COc1cc2cc(NC(=O)c3cc[n+](Cc4ccccc4)cc3)c(=O)oc2cc1OC
A: 12.5

Q: Name the recorded IC50 of the compound listed here: O=C(Nc1cc2ccccc2oc1=O)c1cc[n+](Cc2ccccc2)cc1
A: 71.9

Q: Name the recorded IC50 of the compound listed here: COc1cc2cc(NC(=O)Cc3cc[n+](Cc4ccccc4)cc3)c(=O)oc2cc1OC [compound 10a]
A: 1090

Q: Name the recorded IC50 of the compound listed here: COc1cc2cc(NC(=O)c3cc[n+](Cc4cccc(F)c4F)cc3)c(=O)oc2cc1OC.[Br-]
A: 1.53
